test system: 695427-040-R-J1-PDC complex spheroids, viability percent T/C; experiment: Anticancer human tumor 695427-040-R-J1-PDC patient-derived colon adenocarcinoma cell line growth inhibition [GQUAD]; conditions: second compound 0.1 µM; first compound 0.0316 µM; hits give low values
Criterion: viability, T/C strictly less than 90%. Met: T. Not met: F.

CC1COCCN1c1cc(C2(O)CC3CCC(C2)O3)c2cnn(-c3ccn[nH]3)c2n1 (stereo not given) + CN(C)c1ccc(Nc2c3ccc(NC(=O)CCN4CCCC4)cc3nc3cc(NC(=O)CCN4CCCC4)ccc23)cc1
F
COc1ccc([C@@H](O)c2cc(-c3ncnc4cc(N5CCOCC5)ccc34)c(F)cc2Cl)nn1 + CN(C)c1ccc(Nc2c3ccc(NC(=O)CCN4CCCC4)cc3nc3cc(NC(=O)CCN4CCCC4)ccc23)cc1
F
O=C(NO)c1cnc(N2CCN(S(=O)(=O)c3ccc4ccccc4c3)CC2)nc1 + Cc1[nH]c2ccc(F)cc2c1-c1nc2c3cccnc3c3ncccc3c2[nH]1
F
COc1cccc2c1C(=O)c1c(O)c3c(c(O)c1C2=O)CC(O)(C(=O)CO)CC3OC1CC(N)C(O)C(C)O1 (stereo not given) + Cc1cnc(CNC(=O)c2c(=O)c3ccc(N4CCCN(C)CC4)nc3n3c2sc2ccccc23)cn1
T

###

tested on: 695427-040-R-J1-PDC complex spheroids, viability percent T/C; experiment: Anticancer human tumor 695427-040-R-J1-PDC cell line growth inhibition [GQUAD]; conditions: second compound 3.16 µM; first compound 0.1 µM; hits give low values;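 further: spheroids exposed to compounds for seven days before readout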
Criterion: viability, T/C strictly less than 70%. Met: label 1. Not met: label 0.

O=C(NO)c1cnc(N2CCN(S(=O)(=O)c3ccc4ccccc4c3)CC2)nc1 + CN(C)c1ccc(Nc2c3ccc(NC(=O)CCN4CCCC4)cc3nc3cc(NC(=O)CCN4CCCC4)ccc23)cc1
label 0
CCCS(=O)(=O)Nc1ccc(F)c(C(=O)c2c[nH]c3ncc(-c4ccc(Cl)cc4)cc23)c1F + CN(C)c1ccc(Nc2c3ccc(NC(=O)CCN4CCCC4)cc3nc3cc(NC(=O)CCN4CCCC4)ccc23)cc1
label 0
C#Cc1c(F)ccc2cc(O)cc(-c3ncc4c(N5CC6CCC(C5)N6)nc(OCC56CCCN5CC(F)C6)nc4c3F)c12 (centres undefined) + CN(C)c1ccc(Nc2c3ccc(NC(=O)CCN4CCCC4)cc3nc3cc(NC(=O)CCN4CCCC4)ccc23)cc1
label 0
O=C(c1cc(Cc2n[nH]c(=O)c3ccccc23)ccc1F)N1CCN(C(=O)C2CC2)CC1 + Cc1cnc(CNC(=O)c2c(=O)c3ccc(N4CCCN(C)CC4)nc3n3c2sc2ccccc23)cn1
label 1
COc1ccc([C@@H](O)c2cc(-c3ncnc4cc(N5CCOCC5)ccc34)c(F)cc2Cl)nn1 + Cc1[nH]c2ccc(F)cc2c1-c1nc2c3cccnc3c3ncccc3c2[nH]1
label 0
Nc1ccn(C2OC(CO)C(O)C2(F)F)c(=O)n1 (centres undefined) + CN(C)c1ccc(Nc2c3ccc(NC(=O)CCN4CCCC4)cc3nc3cc(NC(=O)CCN4CCCC4)ccc23)cc1
label 0
COc1cc(C2c3cc4c(cc3C(OC3OC5COC(C)OC5C(O)C3O)C3COC(=O)C23)OCO4)cc(OC)c1O (centres undefined) + CN(C)c1ccc(Nc2c3ccc(NC(=O)CCN4CCCC4)cc3nc3cc(NC(=O)CCN4CCCC4)ccc23)cc1
label 0
O=C(NO)c1cnc(N2CCN(S(=O)(=O)c3ccc4ccccc4c3)CC2)nc1 + Cc1cnc(CNC(=O)c2c(=O)c3ccc(N4CCCN(C)CC4)nc3n3c2sc2ccccc23)cn1
label 1
Nc1ccn(C2OC(CO)C(O)C2(F)F)c(=O)n1 (centres undefined) + Cc1[nH]c2ccc(F)cc2c1-c1nc2c3cccnc3c3ncccc3c2[nH]1
label 1
CCCS(=O)(=O)Nc1ccc(F)c(C(=O)c2c[nH]c3ncc(-c4ccc(Cl)cc4)cc23)c1F + Cc1cnc(CNC(=O)c2c(=O)c3ccc(N4CCCN(C)CC4)nc3n3c2sc2ccccc23)cn1
label 1
CC1COCCN1c1cc(C2(O)CC3CCC(C2)O3)c2cnn(-c3ccn[nH]3)c2n1 (centres undefined) + Cc1cnc(CNC(=O)c2c(=O)c3ccc(N4CCCN(C)CC4)nc3n3c2sc2ccccc23)cn1
label 1
COc1cccc2c1C(=O)c1c(O)c3c(c(O)c1C2=O)CC(O)(C(=O)CO)CC3OC1CC(N)C(O)C(C)O1 (centres undefined) + Cc1cnc(CNC(=O)c2c(=O)c3ccc(N4CCCN(C)CC4)nc3n3c2sc2ccccc23)cn1
label 1
COc1ncnc(C2CC2)c1-c1ncc2cnn(Cc3ccc(-c4nc(C(F)(F)F)cn4C(C)C)cc3)c2n1 + Cc1[nH]c2ccc(F)cc2c1-c1nc2c3cccnc3c3ncccc3c2[nH]1
label 0
C=CCn1c(=O)c2cnc(Nc3ccc(N4CCN(C)CC4)cc3)nc2n1-c1cccc(C(C)(C)O)n1 + CN(C)c1ccc(Nc2c3ccc(NC(=O)CCN4CCCC4)cc3nc3cc(NC(=O)CCN4CCCC4)ccc23)cc1
label 0
C=CCn1c(=O)c2cnc(Nc3ccc(N4CCN(C)CC4)cc3)nc2n1-c1cccc(C(C)(C)O)n1 + Cc1cnc(CNC(=O)c2c(=O)c3ccc(N4CCCN(C)CC4)nc3n3c2sc2ccccc23)cn1
label 1
CC1COCCN1c1cc(C2(S(C)(=N)=O)CC2)nc(-c2ccnc3[nH]ccc23)n1 (centres undefined) + Cc1cnc(CNC(=O)c2c(=O)c3ccc(N4CCCN(C)CC4)nc3n3c2sc2ccccc23)cn1
label 1
CC1COCCN1c1cc(C2(O)CC3CCC(C2)O3)c2cnn(-c3ccn[nH]3)c2n1 (centres undefined) + CN(C)c1ccc(Nc2c3ccc(NC(=O)CCN4CCCC4)cc3nc3cc(NC(=O)CCN4CCCC4)ccc23)cc1
label 0

###

system: 695427-040-R-J1-PDC complex spheroids, viability percent T/C; assay: Anticancer human tumor 695427-040-R-J1-PDC cell line growth inhibition [GQUAD]; details: second compound 3.16 µM; first compound 3.16 µM; hits give low values;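 further: spheroids exposed to compounds for seven days before readout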
attribute-measured: viability, T/C

COc1cccc2c1C(=O)c1c(O)c3c(c(O)c1C2=O)CC(O)(C(=O)CO)CC3OC1CC(N)C(O)C(C)O1 (stereo not drawn) + Cc1[nH]c2ccc(F)cc2c1-c1nc2c3cccnc3c3ncccc3c2[nH]1
56.8%
C=CCn1c(=O)c2cnc(Nc3ccc(N4CCN(C)CC4)cc3)nc2n1-c1cccc(C(C)(C)O)n1 + CN(C)c1ccc(Nc2c3ccc(NC(=O)CCN4CCCC4)cc3nc3cc(NC(=O)CCN4CCCC4)ccc23)cc1
63.8%
O=C(NO)c1cnc(N2CCN(S(=O)(=O)c3ccc4ccccc4c3)CC2)nc1 + Cc1[nH]c2ccc(F)cc2c1-c1nc2c3cccnc3c3ncccc3c2[nH]1
57.3%

###

Tested on: 695427-040-R-J1-PDC complex spheroids, viability percent T/C
Test: Anticancer human tumor 695427-040-R-J1-PDC cell line growth inhibition [GQUAD];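 further: spheroids exposed to compounds for seven days before readout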
Details: second compound 0.316 µM; first compound 10 µM; hits give low values
Description: DNA G-quadruplex Stabilizer Agents in Combinations in Complex Spheroids A high-throughput screen of multi-cell type tumor spheroids was designed to identify active combinations of DNA G-quadruplex stabilizer agents and targeted small molecules. […] Compounds. […] If the clinical Cmax for an agent had not been determined, the highest concentration tested was 10 microM. […]
attribute-measured: viability, T/C (%)

C#Cc1c(F)ccc2cc(O)cc(-c3ncc4c(N5CC6CCC(C5)N6)nc(OCC56CCCN5CC(F)C6)nc4c3F)c12 (stereo unspecified) + Cc1[nH]c2ccc(F)cc2c1-c1nc2c3cccnc3c3ncccc3c2[nH]1
5.99
CC(C)n1c(=O)n(C)c2cnc3cc(F)c(-c4ccc(OCCCN5CCCCC5)nc4)cc3c21 + Cc1cnc(CNC(=O)c2c(=O)c3ccc(N4CCCN(C)CC4)nc3n3c2sc2ccccc23)cn1
56.3
COc1cccc2c1C(=O)c1c(O)c3c(c(O)c1C2=O)CC(O)(C(=O)CO)CC3OC1CC(N)C(O)C(C)O1 (stereo unspecified) + CN(C)c1ccc(Nc2c3ccc(NC(=O)CCN4CCCC4)cc3nc3cc(NC(=O)CCN4CCCC4)ccc23)cc1
50.1
CC1COCCN1c1cc(C2(O)CC3CCC(C2)O3)c2cnn(-c3ccn[nH]3)c2n1 (stereo unspecified) + Cc1cnc(CNC(=O)c2c(=O)c3ccc(N4CCCN(C)CC4)nc3n3c2sc2ccccc23)cn1
18.4
COc1cccc2c1C(=O)c1c(O)c3c(c(O)c1C2=O)CC(O)(C(=O)CO)CC3OC1CC(N)C(O)C(C)O1 (stereo unspecified) + Cc1cnc(CNC(=O)c2c(=O)c3ccc(N4CCCN(C)CC4)nc3n3c2sc2ccccc23)cn1
34.4
CC1COCCN1c1cc(C2(S(C)(=N)=O)CC2)nc(-c2ccnc3[nH]ccc23)n1 (stereo unspecified) + Cc1cnc(CNC(=O)c2c(=O)c3ccc(N4CCCN(C)CC4)nc3n3c2sc2ccccc23)cn1
50.4
CC1COCCN1c1cc(-c2ccnn2C)c2ccnc(-c3ccn[nH]3)c2n1 (stereo unspecified) + Cc1cnc(CNC(=O)c2c(=O)c3ccc(N4CCCN(C)CC4)nc3n3c2sc2ccccc23)cn1
24.9
COc1ccc([C@@H](O)c2cc(-c3ncnc4cc(N5CCOCC5)ccc34)c(F)cc2Cl)nn1 + CN(C)c1ccc(Nc2c3ccc(NC(=O)CCN4CCCC4)cc3nc3cc(NC(=O)CCN4CCCC4)ccc23)cc1
49.3
CC1COCCN1c1cc(-c2ccnn2C)c2ccnc(-c3ccn[nH]3)c2n1 (stereo unspecified) + Cc1[nH]c2ccc(F)cc2c1-c1nc2c3cccnc3c3ncccc3c2[nH]1
30.1
COc1ccc([C@@H](O)c2cc(-c3ncnc4cc(N5CCOCC5)ccc34)c(F)cc2Cl)nn1 + Cc1cnc(CNC(=O)c2c(=O)c3ccc(N4CCCN(C)CC4)nc3n3c2sc2ccccc23)cn1
35.2
Cc1cccc(N(C)C(=O)C2C(O)CCN2c2nc(C)cc(C(F)(F)F)c2C#N)c1 (stereo unspecified) + Cc1cnc(CNC(=O)c2c(=O)c3ccc(N4CCCN(C)CC4)nc3n3c2sc2ccccc23)cn1
69.9
